test system: HaCat cells; experiment: In vitro cytotoxicity screening against epidermal HaCat cells (MTT); settings: 24 h exposure in total (21 h + 3 h MTT), OD570, three independent experiments in duplicate (n = 6)
Ends that are not written are not given here.

>  <SUBSTANCE>
GRVWRWIRSTARRLWN-NH2 [Opis16aKR]

>  <TARGET SYSTEM>
HaCat cells

>  <HaCat toxicity LC50 + SD>
131 ± 5 µg/mL

$$$$
>  <SUBSTANCE>
GKVWKWIKSTAKKLWN-NH2 [Opis16aD5K]

>  <TARGET SYSTEM>
HaCat cells

>  <HaCat toxicity LC50 + SD>
148 ± 6 µg/mL

$$$$
>  <SUBSTANCE>
GRVWRWIKSTAKKLWN-NH2 [Opis16aNterKR]

>  <TARGET SYSTEM>
HaCat cells

>  <HaCat toxicity LC50 + SD>
138 ± 14 µg/mL

$$$$
>  <SUBSTANCE>
GKVWKWIKSTARRLWN-NH2 [Opis16aCterKR]

>  <TARGET SYSTEM>
HaCat cells

>  <HaCat toxicity LC50 + SD>
181 ± 8 µg/mL

$$$$

* * *

test system: A. baumannii ATCC 19606; conditions: A. baumannii ATCC 19606; cation-adjusted MHB, ~5 x 10^5 CFU/mL, 37°C 20 h, OD600; n = 6
Ends that are not written are not given here.

>  <SUBSTANCE>
GRVWRWIRSTARRLWN-NH2 [Opis16aKR]

>  <UNIT TEXT>
µg/mL

>  <Modal MIC>
4

$$$$
>  <SUBSTANCE>
GKVWKWIKSTARRLWN-NH2 [Opis16aCterKR]

>  <UNIT TEXT>
µg/mL

>  <Modal MIC>
4

$$$$
>  <SUBSTANCE>
GKVWKWIKSTAKKLWN-NH2 [Opis16aD5K]

>  <UNIT TEXT>
µg/mL

>  <Modal MIC>
8

$$$$
>  <SUBSTANCE>
GRVWRWIKSTAKKLWN-NH2 [Opis16aNterKR]

>  <UNIT TEXT>
µg/mL

>  <Modal MIC>
4

$$$$

* * *

Quick reference: Selectivity index (HaCat LC50 / MIC) of the listed items.
system: A. baumannii ATCC 19606; conditions: A. baumannii ATCC 19606 over HaCat cells
Ends that are not written are not given here.
MEASURED ATTRIBUTE: Selectivity index (HaCat LC50 / MIC)

>  <SUBSTANCE>
GRVWRWIKSTAKKLWN-NH2 [Opis16aNterKR]

>  <MEASURED ATTRIBUTE>
Selectivity index (HaCat LC50 / MIC)

>  <OBSERVED VALUE>
34.6

$$$$
>  <SUBSTANCE>
GKVWKWIKSTAKKLWN-NH2 [Opis16aD5K]

>  <MEASURED ATTRIBUTE>
Selectivity index (HaCat LC50 / MIC)

>  <OBSERVED VALUE>
18.5

$$$$
>  <SUBSTANCE>
GRVWRWIRSTARRLWN-NH2 [Opis16aKR]

>  <MEASURED ATTRIBUTE>
Selectivity index (HaCat LC50 / MIC)

>  <OBSERVED VALUE>
32.9

$$$$
>  <SUBSTANCE>
GKVWKWIKSTARRLWN-NH2 [Opis16aCterKR]

>  <MEASURED ATTRIBUTE>
Selectivity index (HaCat LC50 / MIC)

>  <OBSERVED VALUE>
45.2

$$$$
